Origin of values: the supplement of paper PMC7877785

Test: self-splicing fitness, log relative to wild type (ln ratio); higher = more splicing; Tetrahymena group I intron in knt gene, E. coli kanamycin selection, DiMSum; sequences stand for … in CUCUCU…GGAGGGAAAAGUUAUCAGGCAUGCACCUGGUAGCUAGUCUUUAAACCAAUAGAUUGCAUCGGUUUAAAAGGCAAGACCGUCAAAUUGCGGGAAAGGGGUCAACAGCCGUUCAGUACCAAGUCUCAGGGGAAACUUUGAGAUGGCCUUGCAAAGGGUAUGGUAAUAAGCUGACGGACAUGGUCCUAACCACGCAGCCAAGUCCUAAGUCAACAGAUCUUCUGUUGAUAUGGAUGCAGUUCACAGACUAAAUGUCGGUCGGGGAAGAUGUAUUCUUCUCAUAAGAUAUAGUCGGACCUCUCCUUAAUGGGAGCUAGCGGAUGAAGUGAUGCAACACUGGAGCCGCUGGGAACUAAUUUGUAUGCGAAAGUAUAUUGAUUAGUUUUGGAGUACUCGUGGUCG;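 further: selection with 25 µg/mL kanamycin versus none on LB agar overnight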
Conditions: 37 °C
result.type: self-splicing fitness (ln)
Answer as a number with no unit attached.

Example results:
- residue.string: "CGUCAGCAAUAUUACGCUAU"
  self-splicing fitness (ln): -1.55
- residue.string: "UGGGAGCAAUAUUACGGCUG"
  self-splicing fitness (ln): -2.31
- residue.string: "GAUAAGCAAUAUUACGAGGG"
  self-splicing fitness (ln): -2.19
- residue.string: "UGCGAGCAAUAUUACGCAUU"
  self-splicing fitness (ln): -3.1
- residue.string: "GAGAAGCAAUAUUACGGACA"
  self-splicing fitness (ln): -1.02

Inquiry: // returns reported self-splicing fitness (ln) for input `ACAGAGCAAUAUUACGAAUG`
Reply text: -2.51

Inquiry: Fill blank: measured self-splicing fitness (ln) of the sequence `GCGCAGCAAUAUUACGACCC` is ____.
Reply text: 0.34

Inquiry: Recorded self-splicing fitness (ln) of `ACUAAGCAAUAUUACGUGAG` , please.
Reply text: -0.636

----------
Assay: self-splicing fitness, log relative to wild type (ln ratio); higher = more splicing; Tetrahymena group I intron in knt gene, E. coli kanamycin selection, DiMSum; sequences stand for … in CUCUCU…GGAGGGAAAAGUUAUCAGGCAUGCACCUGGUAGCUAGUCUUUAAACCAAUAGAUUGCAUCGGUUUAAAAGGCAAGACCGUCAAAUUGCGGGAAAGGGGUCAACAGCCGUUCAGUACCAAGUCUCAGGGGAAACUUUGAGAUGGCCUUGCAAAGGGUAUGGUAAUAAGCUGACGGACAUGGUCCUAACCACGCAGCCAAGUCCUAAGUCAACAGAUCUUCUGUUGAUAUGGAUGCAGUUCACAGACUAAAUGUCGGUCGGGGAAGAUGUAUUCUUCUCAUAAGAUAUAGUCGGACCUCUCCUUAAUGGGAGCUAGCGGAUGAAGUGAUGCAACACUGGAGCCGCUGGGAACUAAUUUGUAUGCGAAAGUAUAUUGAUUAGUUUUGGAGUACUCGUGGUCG
Details: 30 °C
Some sequences, each annotated with its measured self-splicing fitness (ln).
Would you mind answering with just the numeric figure?

For orientation, consider the following solved cases.
- residue.string: "GUAUAGCAAUAUUACGACGC"
  self-splicing fitness (ln): -0.42
- residue.string: "GGCCAGCAAUAUUACGCGCC"
  self-splicing fitness (ln): -3.11
- residue.string: "UCUAAGCAAUAUUACGCCUG"
  self-splicing fitness (ln): -1.6
- residue.string: "UAGAAGCAAUAUUACGCCUU"
  self-splicing fitness (ln): -1.03
- residue.string: "CAUCAGCAAUAUUACGUGAA"
  self-splicing fitness (ln): -0.729

Inquiry: Tell me the measured self-splicing fitness (ln) of `UAAUAGCAAUAUUACGUAAA` , please.
Reply text: -3.19

Inquiry: Query: self-splicing fitness (ln); subject: `UUUCAGCAAUAUUACGCUUA`
Reply text: -0.378

Inquiry: Recorded self-splicing fitness (ln) of `GUUGAGCAAUAUUACGGCUU` , please.
Reply text: -2.84
